Data credit: ChEMBL document CHEMBL1154088

test system: Rattus norvegicus; experiment: Antipyretic activity against yeast-induced hyperpyrexia in hyperthermic rat assessed as rectal temperature at one-tenth of LD50 administered subcutaneously 18 hrs after yeast challenge measured after 4 hrs (Rvb=39.17 +/- 0.20 degC); type: functional
Catalogue of Activity values
experimental-readout: Activity (°C)

molecule: N#Cc1c(-c2ccccc2O)cc(-c2c(O)ccc3c(-c4ccccc4)cc(=O)oc23)[nH]c1=O
numeric-readout: 38.91

molecule: COc1ccc(C2CC(c3c(O)ccc4c(-c5ccccc5)cc(=O)oc34)=NN2c2ccccc2)cc1 (stereo not drawn)
numeric-readout: 38.87

molecule: CN(C)c1ccc(-c2cc(-c3c(O)ccc4c(-c5ccccc5)cc(=O)oc34)[nH]c(=N)c2C#N)cc1
numeric-readout: 38.89

molecule: C/C(=N\Nc1ccccc1)c1c(O)ccc2c(-c3ccccc3)cc(=O)oc12
numeric-readout: 38.91

molecule: N#Cc1c(-c2ccc(Cl)cc2)cc(-c2c(O)ccc3c(-c4ccccc4)cc(=O)oc23)[nH]c1=O
numeric-readout: 38.91

molecule: CN(C)c1ccc(-c2cc(-c3c(O)ccc4c(-c5ccccc5)cc(=O)oc34)[nH]c(=O)c2C#N)cc1
numeric-readout: 39.11

molecule: CN(C)c1ccc(/C=C/C(=O)c2c(O)ccc3c(-c4ccccc4)cc(=O)oc23)cc1
numeric-readout: 38.86

molecule: C/C(=N\Nc1ccc([N+](=O)[O-])cc1[N+](=O)[O-])c1c(O)ccc2c(-c3ccccc3)cc(=O)oc12
numeric-readout: 38.93

* * *

assay: Toxicity in sc dosed albino mouse up to 24 hrs; type: organism-based; conditions: in vivo
experimental-readout: LD50 at 24 h (mg/kg)

molecule: N#Cc1c(-c2ccc(Cl)cc2)cc(-c2c(O)ccc3c(-c4ccccc4)cc(=O)oc23)[nH]c1=O
result-units: mg/kg
numeric-readout: 310
//
molecule: CN(C)c1ccc(C2CC(c3c(O)ccc4c(-c5ccccc5)cc(=O)oc34)=NN2)cc1 (stereo not given)
result-units: mg/kg
numeric-readout: 310
//
molecule: C/C(=N\c1ccccc1N)c1c(O)ccc2c(-c3ccccc3)cc(=O)oc12
result-units: mg/kg
numeric-readout: 370
//
molecule: O=c1cc(-c2ccccc2)c2ccc(O)c(C3=NNC(c4ccc(Cl)cc4)C3)c2o1 (stereo not given)
result-units: mg/kg
numeric-readout: 310
//
molecule: CN(C)c1ccc(-c2cc(-c3c(O)ccc4c(-c5ccccc5)cc(=O)oc34)[nH]c(=O)c2C#N)cc1
result-units: mg/kg
numeric-readout: 390

* * *

system: Rattus norvegicus; test: Antipyretic activity against yeast-induced hyperpyrexia in hyperthermic rat assessed as rectal temperature at one-tenth of LD50 administered subcutaneously 18 hrs after yeast challenge measured after 4 hrs (Rvb=39.17 +/- 0.20 degC); format: functional
Catalogue of Activity values

compound: COc1ccc(C2CC(c3c(O)ccc4c(-c5ccccc5)cc(=O)oc34)=NN2c2ccc([N+](=O)[O-])cc2[N+](=O)[O-])cc1 (centres undefined)
Activity, °C: 38.91
--
compound: O=c1cc(-c2ccccc2)c2ccc(O)c(C3=NNC(c4ccc(Cl)cc4)C3)c2o1 (centres undefined)
Activity, °C: 38.91
--
compound: N#Cc1c(-c2cccnc2)cc(-c2c(O)ccc3c(-c4ccccc4)cc(=O)oc23)[nH]c1=N
Activity, °C: 38.91
--
compound: N#Cc1c(-c2cccnc2)cc(-c2c(O)ccc3c(-c4ccccc4)cc(=O)oc23)[nH]c1=O
Activity, °C: 38.91
--
compound: CN(C)c1ccc(C2CC(c3c(O)ccc4c(-c5ccccc5)cc(=O)oc34)=NN2c2ccc([N+](=O)[O-])cc2[N+](=O)[O-])cc1 (centres undefined)
Activity, °C: 38.91
--
compound: COc1ccc(/C=C/C(=O)c2c(O)ccc3c(-c4ccccc4)cc(=O)oc23)cc1
Activity, °C: 39.11
--
compound: CN(C)c1ccc(C2CC(c3c(O)ccc4c(-c5ccccc5)cc(=O)oc34)=NN2)cc1 (centres undefined)
Activity, °C: 38.91
--
compound: CC(=O)c1c(O)ccc2c(-c3ccccc3)cc(=O)oc12
Activity, °C: 39.06
--
compound: O=C(/C=C/c1ccc(Cl)cc1)c1c(O)ccc2c(-c3ccccc3)cc(=O)oc12
Activity, °C: 38.91
--
compound: CN(C)c1ccc(C2CC(c3c(O)ccc4c(-c5ccccc5)cc(=O)oc34)=NN2c2ccccc2)cc1 (centres undefined)
Activity, °C: 38.88
--
compound: COc1cc(OC)c(-c2cc(-c3c(O)ccc4c(-c5ccccc5)cc(=O)oc34)[nH]c(=O)c2C#N)c(OC)c1
Activity, °C: 38.91
--
compound: COc1ccc(-c2cc(-c3c(O)ccc4c(-c5ccccc5)cc(=O)oc34)[nH]c(=O)c2C#N)cc1
Activity, °C: 38.91
--
compound: O=c1cc(-c2ccccc2)c2ccc(O)c(C3=NN(c4ccc([N+](=O)[O-])cc4[N+](=O)[O-])C(c4ccc(Cl)cc4)C3)c2o1 (centres undefined)
Activity, °C: 38.94
--
compound: C/C(=N\c1ccccc1N)c1c(O)ccc2c(-c3ccccc3)cc(=O)oc12
Activity, °C: 38.9
--
compound: N#Cc1c(-c2ccc(Cl)cc2)cc(-c2c(O)ccc3c(-c4ccccc4)cc(=O)oc23)[nH]c1=N
Activity, °C: 38.91
--
compound: O=c1cc(-c2ccccc2)c2ccc(O)c(C3=NN(c4ccccc4)C(c4ccc(Cl)cc4)C3)c2o1 (centres undefined)
Activity, °C: 39.05
--
compound: COc1ccc(-c2cc(-c3c(O)ccc4c(-c5ccccc5)cc(=O)oc34)[nH]c(=N)c2C#N)cc1
Activity, °C: 38.91
--
compound: COc1ccc(C2CC(c3c(O)ccc4c(-c5ccccc5)cc(=O)oc34)=NN2)cc1 (centres undefined)
Activity, °C: 39.15
--
compound: N#Cc1c(-c2ccccc2O)cc(-c2c(O)ccc3c(-c4ccccc4)cc(=O)oc23)[nH]c1=N
Activity, °C: 38.94

* * *

Catalogue of LD50 at 24 h values
assay: Toxicity in sc dosed albino mouse up to 24 hrs; type: organism-based; settings: in vivo

compound: O=c1cc(-c2ccccc2)c2ccc(O)c(C3=NN(c4ccccc4)C(c4ccc(Cl)cc4)C3)c2o1 (centres undefined)
LD50 at 24 h [mg/kg]: 330
//
compound: COc1ccc(C2CC(c3c(O)ccc4c(-c5ccccc5)cc(=O)oc34)=NN2)cc1 (centres undefined)
LD50 at 24 h [mg/kg]: 330
//
compound: CN(C)c1ccc(C2CC(c3c(O)ccc4c(-c5ccccc5)cc(=O)oc34)=NN2c2ccc([N+](=O)[O-])cc2[N+](=O)[O-])cc1 (centres undefined)
LD50 at 24 h [mg/kg]: 330
//
compound: O=c1cc(-c2ccccc2)c2ccc(O)c(C3=NN(c4ccc([N+](=O)[O-])cc4[N+](=O)[O-])C(c4ccc(Cl)cc4)C3)c2o1 (centres undefined)
LD50 at 24 h [mg/kg]: 390

* * *

assay: Toxicity in sc dosed albino mouse up to 24 hrs; format: organism-based; conditions: in vivo
Response field label takes fulfilled when LD50 at 24 h is strictly below 300 mg/kg and not fulfilled in all other cases.

molecule: N#Cc1c(-c2ccccc2O)cc(-c2c(O)ccc3c(-c4ccccc4)cc(=O)oc23)[nH]c1=N
answer-label: not fulfilled
--
molecule: COc1ccc(/C=C/C(=O)c2c(O)ccc3c(-c4ccccc4)cc(=O)oc23)cc1
answer-label: fulfilled
--
molecule: O=C(/C=C/c1ccc(Cl)cc1)c1c(O)ccc2c(-c3ccccc3)cc(=O)oc12
answer-label: not fulfilled
--
molecule: CN(C)c1ccc(C2CC(c3c(O)ccc4c(-c5ccccc5)cc(=O)oc34)=NN2c2ccccc2)cc1 (stereo not drawn)
answer-label: not fulfilled
--
molecule: C/C(=N\Nc1ccc([N+](=O)[O-])cc1[N+](=O)[O-])c1c(O)ccc2c(-c3ccccc3)cc(=O)oc12
answer-label: not fulfilled
--
molecule: N#Cc1c(-c2ccc(Cl)cc2)cc(-c2c(O)ccc3c(-c4ccccc4)cc(=O)oc23)[nH]c1=N
answer-label: not fulfilled
--
molecule: N#Cc1c(-c2cccnc2)cc(-c2c(O)ccc3c(-c4ccccc4)cc(=O)oc23)[nH]c1=N
answer-label: not fulfilled
--
molecule: CN(C)c1ccc(-c2cc(-c3c(O)ccc4c(-c5ccccc5)cc(=O)oc34)[nH]c(=N)c2C#N)cc1
answer-label: not fulfilled
--
molecule: N#Cc1c(-c2cccnc2)cc(-c2c(O)ccc3c(-c4ccccc4)cc(=O)oc23)[nH]c1=O
answer-label: not fulfilled
--
molecule: CN(C)c1ccc(/C=C/C(=O)c2c(O)ccc3c(-c4ccccc4)cc(=O)oc23)cc1
answer-label: not fulfilled
--
molecule: COc1ccc(-c2cc(-c3c(O)ccc4c(-c5ccccc5)cc(=O)oc34)[nH]c(=N)c2C#N)cc1
answer-label: not fulfilled
--
molecule: N#Cc1c(-c2ccccc2O)cc(-c2c(O)ccc3c(-c4ccccc4)cc(=O)oc23)[nH]c1=O
answer-label: fulfilled
--
molecule: COc1ccc(C2CC(c3c(O)ccc4c(-c5ccccc5)cc(=O)oc34)=NN2c2ccccc2)cc1 (stereo not drawn)
answer-label: not fulfilled
--
molecule: CC(=O)c1c(O)ccc2c(-c3ccccc3)cc(=O)oc12
answer-label: fulfilled
--
molecule: COc1ccc(-c2cc(-c3c(O)ccc4c(-c5ccccc5)cc(=O)oc34)[nH]c(=O)c2C#N)cc1
answer-label: not fulfilled
--
molecule: COc1ccc(C2CC(c3c(O)ccc4c(-c5ccccc5)cc(=O)oc34)=NN2c2ccc([N+](=O)[O-])cc2[N+](=O)[O-])cc1 (stereo not drawn)
answer-label: not fulfilled
--
molecule: COc1cc(OC)c(-c2cc(-c3c(O)ccc4c(-c5ccccc5)cc(=O)oc34)[nH]c(=O)c2C#N)c(OC)c1
answer-label: not fulfilled
--
molecule: C/C(=N\Nc1ccccc1)c1c(O)ccc2c(-c3ccccc3)cc(=O)oc12
answer-label: fulfilled
